Reference source: PubChem BioAssay (NCI)

- Test system: ACHN renal
- PROTOCOL DETAILS: NCI tumour cell line growth inhibition, 48 h
MEASUREMENT TYPE: TGI

Each molecule below has a recorded value; state its TGI.
1. O=C1OC2(c3ccc(O)cc3Oc3cc(O)ccc32)c2cccc3cccc1c23
2. Cc1ccc(-c2cc(C(=O)Nc3ccc(S(=O)(=O)N4CCCCC4)cc3)[nH]n2)c(O)c1
3. ClCc1ccccc1Cn1cnc2nc(Cl)nc(Cl)c21
4. CN1CCc2ccccc2C1Cc1ccccc1NC(=O)c1sc2ccccc2c1Cl (stereo not given)
5. COc1ccc(OC2(c3cc(OC)ccc3OC)OC(=O)c3ccccc32)cc1 (stereo not given)

Reply |
["44 µM", "> 100 µM", "0.609 µM", "> 100 µM", "> 100 µM"]

* * *

- Test system: OVCAR-5 ovarian
- PROTOCOL DETAILS: NCI tumour cell line growth inhibition, 48 h
I'd be grateful if you could share measured TGI for these entries.

{"COMPOUND": "COC(=O)C(Cc1nc2ccc(Cl)cc2[nH]c1=O)C(=O)C(=O)Nc1cc(C)ccc1C (stereo not given)", "STUDY TARGET": "OVCAR-5 ovarian", "TGI": "> 100 µM"}

Each compound below has a recorded value; state its TGI.
1. CCOC(=O)c1c(NN2CCN(CC(F)(F)F)CC2)oc(/C=C2\C=Nc3ncccc32)c1O
2. Cc1ccc(NC(=O)C2C3C=CC(O3)C2C(=O)O)cc1 (stereo not given)

Reply |
1: 67.5 µM; 2: > 100 µM

Each compound below has a recorded value; state its TGI.
1. COc1cc2c3c(n(CCCN=[N+]=[N-])c(=O)c2cc1OC)-c1ccc(F)cc1C3=O
2. COc1ccc(-c2cnc(-c3ccc(OC)cc3)n2-c2cc(OC)c(OC)c(OC)c2)cc1
3. COc1ccc(Sc2[nH]c(C=O)c3ccccc23)cc1
4. CCCCCSc1ccc2nc(NC(=O)OCC)sc2c1
5. CCNCC(=O)Nc1ccc2c(c1)C(=O)c1ccc(NC(=O)CNCC)cc1C2=O
6. Fc1cc2nc3n(c2cc1F)C(c1c(F)cccc1F)SC3 (stereo not given)
7. N#CC(NNC(=O)Cc1ccccc1)c1ccc([N+](=O)[O-])cc1 (stereo not given)

Reply |
1. > 100 µM
2. > 100 µM
3. 28.3 µM
4. > 100 µM
5. 10.7 µM
6. > 100 µM
7. > 100 µM

* * *

- Tested on: OVCAR-8 ovarian
- PROTOCOL DETAILS: NCI tumour cell line growth inhibition, 48 h
MEASUREMENT TYPE: TGI

The following compounds have reported results that may help.
{"COMPOUND": "CCOC(=O)C1CC(=O)C=C2CCCCC21 (stereo unspecified)", "TGI": "> 100 µM"}
{"COMPOUND": "CN(C)CC1(C)CC/C(=C\\c2ccc(Cl)cc2)C1=O (stereo unspecified)", "TGI": "> 100 µM"}
{"COMPOUND": "CC(=O)NC(CCCCNCc1ccccc1)C(=O)NCc1ccccc1 (stereo unspecified)", "TGI": "> 100 µM"}

Each compound below has a recorded value; state its TGI.
1. O=c1[nH]c(-c2ccc(Cl)c(Cl)c2)cn1-c1ccc(Cl)cc1
2. NCCCN(CCCCN(CCCN)Cc1ccccc1)Cc1ccccc1
3. O=C1C(Cl)C(c2ccccc2Cl)N1n1cnc2ccccc2c1=O (stereo unspecified)
4. Cc1c(-c2ccccc2)c(C#N)c2nnn(-c3ccc(Cl)cc3)c(=O)n12
5. CCOC(=O)c1c(CN2CCNCC2)nc2ccc(Cl)cc2c1-c1ccccc1
6. Cc1ccc(/C(=N/NS(=O)(=O)c2cc(C)c(Cl)cc2Cl)Sc2cc(Cl)c(C)cc2S(N)(=O)=O)cc1
7. c1ccc(CSC(SCc2ccccc2)c2cccc3ccccc23)cc1

Reply |
1. > 100 µM
2. > 100 µM
3. > 100 µM
4. > 100 µM
5. 11.7 µM
6. > 100 µM
7. > 10 µM

Ask | Given O=C(N/C(=C\c1ccccc1)c1nc2ccccc2c(=O)o1)c1ccccc1 , report its TGI on OVCAR-8 ovarian.
Reply | > 100 µM

* * *

- Test system: SN12C renal
- PROTOCOL DETAILS: NCI tumour cell line growth inhibition, 48 h
I'd be grateful if you could share measured TGI for these entries.

The following compounds have reported results that may help.
{"COMPOUND": "CC(=O)OC(C(=O)O)C(OC(C)=O)C(OC(C)=O)C(OC(C)=O)C(=O)O (stereo not drawn)", "MEASUREMENT TYPE": "TGI", "MEAS VALUE": "> 100 µM"}
{"COMPOUND": "COc1cc2c3c(n(CCCN=[N+]=[N-])c(=O)c2cc1OC)-c1ccc(F)cc1C3=O", "MEASUREMENT TYPE": "TGI", "MEAS VALUE": "> 100 µM"}

Ask | Look up and state reported TGI for COc1ccccc1NC1Oc2cc3c(cc2C(c2cc(OC)c(OC)c(OC)c2)C1C)OCO3 (stereo not drawn)
Reply | > 65.3 µM

* * *

- System: MOLT-4 leukemia
- PROTOCOL DETAILS: NCI tumour cell line growth inhibition, 48 h
I'd be grateful if you could share measured TGI for these entries.

Each compound below has a recorded value; state its TGI.
1. O=C(Nc1ccc(I)cc1F)c1cc(Br)ccc1O
2. c1ccc(CSC(SCc2ccccc2)c2cccc3ccccc23)cc1
3. NCCCN(CCCCN(CCCN)Cc1ccccc1)Cc1ccccc1

Reply |
1: 5.6 µM; 2: > 10 µM; 3: 46 µM

Each compound below has a recorded value; state its TGI.
1. CCCCCSc1ccc2nc(NC(=O)OCC)sc2c1
2. COc1cc2c(/C=C3\C(=O)N(C)c4ccccc43)c[nH]c2cc1C
3. O=C(CCN1CCCCC1)Nc1ccc2c(c1)C(=O)c1ccc(NC(=O)CCN3CCCCC3)cc1C2=O
4. COc1cc2c(c(OC)c1OC)-c1ccc(SC)c(=O)cc1[C@@H](NC(=O)c1cccc([N+](=O)[O-])c1)CC2
5. O=C(O)CCC(NC(=O)c1ccc(Oc2nc3ccccc3nc2C(=O)O)cc1)C(=O)O (stereo not given)

Reply |
> 100 µM
> 64 µM
14.5 µM
> 100 µM
> 100 µM

Each compound below has a recorded value; state its TGI.
1. Cc1ccc(NC(=O)C2C3C=CC(O3)C2C(=O)O)cc1 (stereo not given)
2. CCOc1ccccc1/C=N\N=C(N/N=C/c1ccccc1OCC)N/N=C/c1ccccc1OCC

Reply |
1: > 100 µM; 2: > 100 µM

* * *

- Tested on: K-562 leukemia
- PROTOCOL DETAILS: NCI tumour cell line growth inhibition, 48 h; in the data active = GI50 below about 0.43 µM; inactive = the rest
Can you answer with just one of these options? yes (1) = active, no (0) = inactive

{"COMPOUND": "NC(=O)c1cn(C2CC(O)C(CO)O2)c2ncnc(N)c12 (stereo unspecified)", "CATEGORY LABEL": "no (0)"}

Ask | What classification did CC[C@]12CN3CCc4c([nH]c5ccccc45)[C@@](C(=O)OC)(c4cc5c(cc4OC)N(C)[C@H]4[C@@](O)(C(=O)OC)[C@H](OC(C)=O)[C@]6(CC)C=CCN7CC[C@]54[C@@H]76)CC(C3)[C@H]1O2 (stereo partly specified) end up with in this test?
Reply | yes (1)

Ask | What classification did Clc1cc(Br)ccc1-c1ccc(CNCC2CCNCC2)o1 end up with in this test?
Reply | no (0)

Ask | What classification did O=c1[nH]c(-c2ccc(Cl)c(Cl)c2)cn1-c1ccc(Cl)cc1 end up with in this test?
Reply | no (0)

Ask | What classification did COc1cc2c3c(n(CCCN=[N+]=[N-])c(=O)c2cc1OC)-c1ccccc1C3=O end up with in this test?
Reply | no (0)

Ask | What classification did COc1cc2c(cc1OC)[C@@H]1C(=O)c3ccc4c(c3O[C@@H]1CO2)C[C@H](C(C)C)O4 end up with in this test?
Reply | no (0)

* * *

- Tested on: A498 renal
- PROTOCOL DETAILS: NCI tumour cell line growth inhibition, 48 h
I'd be grateful if you could share measured TGI for these entries.
Give bare numbers, in µM.

{"COMPOUND": "C[C@]12CC[C@H]3[C@@H](CC=C4C[C@@H](O)CC[C@@]43C)[C@@H]1C/C(=C\\c1ccncc1)[C@@H]2O", "STUDY TARGET": "A498 renal", "MEAS VALUE": 28.3}
{"COMPOUND": "COc1ccc(O)c(/C=N\\Nc2ccccc2)c1", "STUDY TARGET": "A498 renal", "MEAS VALUE": 91.6}
{"COMPOUND": "Cc1[nH]c2ccccc2c1CO", "STUDY TARGET": "A498 renal", "MEAS VALUE": 56.2}
{"COMPOUND": "COc1cc(C2c3cc4c(cc3OC(NNC(N)=S)C2C)OCO4)cc(OC)c1OC (stereo unspecified)", "STUDY TARGET": "A498 renal", "MEAS VALUE": 34.7}

With those in mind, consider the next compound.
Ask | Look up and state reported TGI for COC(=O)c1c(O)ccc2c1c1c(n2CCc2ccc(OC)c(OC)c2)C(=O)c2ccccc2C1=O
Reply | 32.9
